system.name: UniProt P29274
Sequence (P29274 whole entry): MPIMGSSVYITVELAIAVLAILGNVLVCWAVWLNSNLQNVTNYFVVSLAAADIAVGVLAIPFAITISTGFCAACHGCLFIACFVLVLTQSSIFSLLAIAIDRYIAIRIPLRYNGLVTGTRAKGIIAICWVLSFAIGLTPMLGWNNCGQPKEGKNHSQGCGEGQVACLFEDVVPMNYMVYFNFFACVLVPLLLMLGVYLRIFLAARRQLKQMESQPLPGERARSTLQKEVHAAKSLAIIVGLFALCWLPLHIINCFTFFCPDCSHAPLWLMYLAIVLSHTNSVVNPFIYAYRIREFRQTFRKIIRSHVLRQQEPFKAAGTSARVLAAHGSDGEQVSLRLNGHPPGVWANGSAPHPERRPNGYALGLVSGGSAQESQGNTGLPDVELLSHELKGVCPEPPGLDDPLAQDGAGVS
run.description: Antagonist activity at adenosine A2A receptor
quantity.kind: pKi
Just so you know, pKi here is -log10 of the concentration in molar units; reply with that number alone.

# input Any idea what its pKi is? The molecule is Cl.Cl.Nc1nc(-c2ccccc2)c2c(n1)-c1cc(CN3CCCC3)ccc1C2=O
# output 8.39

====

run.description: Cmax in BALB/c mouse plasma at 10 mg/kg, po
Assay type: ADME, organism-based
Set-up: dose 10 mg/kg, route oral
quantity.kind: Cmax (nM)
Express the result in nM but write the number alone.

# input Any idea what its Cmax is? The compound is Cl.Cl.Nc1nc(-c2ccccc2)c2c(n1)-c1cc(CN3CCCC3)ccc1C2=O
# output 655
